Recorded GI50 by entry
- Tested on: 786-0
- Test summary: NCI tumour cell line growth inhibition, 48 h
Calls of active or inactive are those of the source. Cut-off read from the data, not from the text of the source: active = GI50 up to about 1.1 µM and inactive = higher.
Result type: GI50

COc1cc(/C=C2\CCc3cc(OC)c(OC)cc3C2=O)cc(OC)c1 :: 4.66 µM (inactive)
CN1CCN(C)C12C=c1ccccc1=CC21CC1 :: 54 µM (inactive)
Cn1c(=O)nc2n(-c3cc(C(F)(F)F)cc(C(F)(F)F)c3)c3ccccc3nc-2c1=O :: > 100 µM (inactive)
COc1ccc(C[C@H]2COC(=O)[C@@H]2Cc2ccc(O)cc2)cc1OC :: > 100 µM (inactive)
O=C(NCCc1ccccc1)c1cc(/C=C/c2cc(O)ccc2O)ccc1O :: 2.38 µM (inactive)
C=C1CN=C(Nc2ccc(F)cc2F)S1 :: > 100 µM (inactive)
CC1=CC(=O)CC(C)(C)C1/C=C/C(C)=C/C=C/C(C)=C/C=C/C=C(C)/C=C/C=C(C)/C=C/C1C(C)=CC(=O)CC1(C)C (stereo unspecified) :: 34.4 µM (inactive)
O=C(Nc1ccccc1)OCCN=c1c2ccccc2ccc2ccccc12 :: 32.7 µM (inactive)
Nc1ccc(N)c2c1C(=O)c1c(N)ccc(N)c1C2=O :: 36.9 µM (inactive)
C=C1C2CC3CCC2C(OC(=O)c2ccccc2C(=O)O)C13 (stereo unspecified) :: > 100 µM (inactive)
Cc1cc2c(cc1CO)N1Cc3cc(C)c(CO)cc3N(C2)C1 :: > 100 µM (inactive)
O=[N+]([O-])c1ccc(Cl)c(C2CC(c3cccc4ccccc34)=Nc3ccccc3[S+]2[O-])c1 (stereo unspecified) :: 9.93 µM (inactive)
CC1=C(C(=O)Nc2ccc(C)cc2)C(c2cccc([N+](=O)[O-])c2)C(C(=O)Nc2ccc(C)cc2)=C(C)N1 :: 26.2 µM (inactive)
Sc1ccc2ccccc2c1CNCc1ccccc1 :: 9.75 µM (inactive)
Fc1ccc(C2SCc3nc4ccccc4n32)cc1 (stereo unspecified) :: 42.9 µM (inactive)
CCOC(=O)C1CCCCc2sc(N)c(C#N)c21 (stereo unspecified) :: > 100 µM (inactive)
CCc1cc(Cc2cc(CC)c(NC(=O)C(=O)Cc3ccccn3)c(CC)c2Cl)c(Cl)c(CC)c1NC(=O)C(=O)Cc1ccccn1 :: > 100 µM (inactive)
CN(Cc1cnc2nc(N)nc(N)c2n1)c1ccc(C(=O)NC(CO)CCCO)cc1 (stereo unspecified) :: > 100 µM (inactive)
C[C@@H](O)C(=O)N1[C@@H]2CC3CC[C@]2(CS1(=O)=O)C3(C)C :: 52.8 µM (inactive)
COC(=O)c1nc2c(C)c(O)c(O)c([C@H](C)CCC=C(C)C)c2o1 :: 18.6 µM (inactive)
COc1ccc2c(c1)CC[C@@H]1C2CC[C@]2(C)C(=O)N(C)C(=O)CC12 (stereo partly specified) :: 50.1 µM (inactive)

* * *

- Test system: 786-0
- Test summary: NCI tumour cell line growth inhibition, 48 h
Calls of active or inactive are those of the source. Cut-off read from the data, not from the text of the source: active = GI50 up to about 1.1 µM and inactive = higher.
Labels: active, inactive

Cc1ccc(NC(=O)CC(=O)N2N=C(N(CCC#N)c3cccc(C)c3)CC2c2ccccc2)cc1 (centres undefined) :: inactive
O=c1[nH]nc(Cc2ccccc2)n1/N=C/c1c[nH]c2ccccc12 :: inactive
C=C1CC(OC(C)=O)/C=C(/C)CCC(C(C)(C)O)CC1O (centres undefined) :: inactive
CN(C)CCNC(=O)c1ccc(NCCCN(C)CCCNc2ccc3c(=O)n(CCN(C)C)c(=O)n4c5ccccc5c(=O)c2c34)c2c(O)c3ccccc3nc12 :: active
COCN(C)c1nc(N(C)C)nc(N(C)C)n1 :: inactive
CS(=O)(=O)OCCn1cnc2nc(NC(=O)c3ccccc3)[nH]c(=O)c21 :: inactive
CN(C)CCn1c(=O)c2ccc(NCCCN(C)CCCNc3ccc4c(=O)n(CCN(C)C)c(=O)n5c6ccc(O)cc6c(=O)c3c45)c3c(=O)c4cc(O)ccc4n(c1=O)c23 :: active
C[C@]12CCC3[C@@H](C[C@H]4OC(=O)[C@@]35CCC(=O)C=C45)C1CCC2=O (some centres undefined) :: inactive
Nc1cc(F)ccc1CC(=O)O :: inactive

* * *

- System: OVCAR-8
- Test summary: NCI tumour cell line growth inhibition, 48 h
The source made the active and inactive calls. Cut-off read from the data, not from the text of the source: active = GI50 up to about 1.1 µM and inactive = higher.
Result type: GI50

Cc1cn(C(=O)NC23CC4CC(CC(C4)C2)C3)c(=O)[nH]c1=O :: 32.7 µM (inactive)
CSCCCNC(=O)c1csc(-c2csc(CCN)n2)n1 :: > 100 µM (inactive)
CC(C)(C)c1nc2c(o1)/C(=N\c1ccccc1)c1ccccc1C2=O :: 2.72 µM (inactive)
Oc1[nH]c(Nc2cccc(CC(F)(F)F)c2)nc2ncnc1-2 :: > 100 µM (inactive)
Cc1nc2c(ccc3ncccc32)[nH]1 :: > 100 µM (inactive)
Cc1cc(C)c(C(=O)O)c(N)c1O :: > 100 µM (inactive)
CC(C)(C)c1cc(COc2c3sc(=S)sc3c(OCc3cc(C(C)(C)C)cc(C(C)(C)C)c3)c3sc(=S)sc23)cc(C(C)(C)C)c1 :: > 100 µM (inactive)
O=C1Nc2ccccc2Nc2nc3cccccc-3c21 :: > 100 µM (inactive)
C=C1CN=C(Nc2ccc(F)cc2F)S1 :: > 100 µM (inactive)
CC(=O)Oc1cc(OC(C)=O)c2c(=O)c3ccccc3[nH]c2c1 :: 32.9 µM (inactive)
CS(=O)(=O)OCCCSCCSCCCOS(C)(=O)=O :: > 100 µM (inactive)
ON=C1CCCCC(=NO)CCCC1 :: > 100 µM (inactive)

* * *

Measured GI50 accompanies every entry in the list below.
- System: LXFL 529
- Test summary: NCI tumour cell line growth inhibition, 48 h
Active and inactive are the calls of the source. Cut-off read from the data, not from the text of the source: active = GI50 up to about 1.1 µM and inactive = higher.
Result type: GI50

Cc1nn(C)cc1P(=S)(c1ccccc1)c1ccccc1 :: 51.3 µM (inactive)
COC(=O)C(=O)C1CCCCC(C2=NC3NN=C(N)N3C2=O)C1=O (centres undefined) :: > 100 µM (inactive)
CN(C)C(=S)/N=c1\ssc(=S)n1Cc1cccs1 :: 4.75 µM (inactive)
O=C1Nc2ccccc2Nc2nc3cccccc-3c21 :: > 100 µM (inactive)
NNC(=O)N/N=C1\CN(c2ccc(Cl)cc2Cl)C(=O)C(=O)C1c1nc2ccccc2o1 (centres undefined) :: > 100 µM (inactive)
COc1cc([C@@H]2c3cc4c(cc3[C@@H](NCc3ccc(C#N)cc3)C3COC(=O)[C@@H]32)OCO4)cc(OC)c1O (some centres undefined) :: 4.5 µM (inactive)
O=C(CCl)Nc1ccc(C(=O)N/N=C/c2ccc(Cl)cc2)cc1 :: 1.71 µM (inactive)
Cc1ccc(Nc2nc(C)c(C(/C=C/c3ccc(/C=C/C(=N/NC(=O)C[n+]4ccccc4)c4sc(Nc5ccc(C)cc5[N+](=O)[O-])nc4C)cc3)=N\NC(=O)C[n+]3ccccc3)s2)c([N+](=O)[O-])c1 :: 95.7 µM (inactive)
CCCCCCCCSC(=O)NCCCC :: 37.8 µM (inactive)

* * *

- Tested on: SNB-19
- Test summary: NCI tumour cell line growth inhibition, 48 h
The source made the active and inactive calls. Cut-off read from the data, not from the text of the source: active = GI50 up to about 1.1 µM and inactive = higher.
GI50 reference
Result type: GI50

O=C1NC(=S)NC(=O)C1C(c1ccc(O)cc1)C1C(=O)NC(=S)NC1=O.c1ccncc1 :: > 100 µM (inactive)
O=C1NC(=O)C23C(=O)NC(=O)C12C1C=CC3CC1 (centres undefined) :: > 10 µM (inactive)
Cn1c(=O)c2nc(CSCc3ccccc3)[nH]c2n(C)c1=O :: > 100 µM (inactive)
Cc1cc(C)c(C(=O)O)c(N)c1O :: > 100 µM (inactive)
Cc1cn(CCCCOC(=O)NC(CCCNC(=N)N)C(=O)O)c(=O)[nH]c1=O (centres undefined) :: > 100 µM (inactive)
CCC(=O)NCC1CCCN2CCCCC12 (centres undefined) :: > 100 µM (inactive)
CN(C)/C=N/S(=O)(=O)c1nn2c(C=O)c(-c3ccc(-c4ccc([N+](=O)[O-])cc4)o3)nc2s1 :: 13.9 µM (inactive)
C[C@@H]1CC[C@@H]2[C@@H](C1)O[C@@H]([C@H](C)OCc1ccccc1)SC2(C)C :: 21.3 µM (inactive)
CC1(C)CC2=C(Sc3ccccc3N2)C(=O)C1C(=O)C(=O)Nc1cc(Cl)ccc1Cl (centres undefined) :: > 100 µM (inactive)
c1ccc2c(-c3ccnc(-c4c[nH]c5ccccc45)n3)c[nH]c2c1 :: 4.81 µM (inactive)
COC(=O)C(Cc1ccccc1)OC(=O)C(N)CC(=O)O (centres undefined) :: > 100 µM (inactive)
COc1ccc2c(c1)CC[C@@H]1C2CC[C@]2(C)C(=O)N(C)C(=O)CC12 (some centres undefined) :: > 100 µM (inactive)
CC(C)Cn1cnc2c(SCc3ccccn3)nc(N)nc21 :: > 100 µM (inactive)
CC12CCC(=O)C=C1CCC1C2CCC2(C)C(C(=O)Cn3cnc4c(=S)nc[nH]c43)CCC12 (centres undefined) :: 23.6 µM (inactive)
c1cnc2c(c1)-n1cccc1C1(CCSC1)NN2 (centres undefined) :: > 100 µM (inactive)
Cc1ccc(S(=O)(=O)NC(=O)NC(CC(N)=O)C(=O)O)cc1 (centres undefined) :: > 100 µM (inactive)
CC1(C)COC(c2cccc(C(O)c3ccc(Cl)cc3)c2)=N1 (centres undefined) :: 32.6 µM (inactive)
COc1ccc(NC(=O)CC(=O)NN2C(=O)/C(=C/c3ccc(N(CCC#N)CCC#N)cc3C)N=C2/C=C\c2ccccc2)cc1 :: > 100 µM (inactive)
CCOC(=O)/C(C#N)=C/c1[nH]c(C)c(C)c1C :: > 100 µM (inactive)
CC(Oc1ccc(Cl)cc1Cl)C(=O)NN1C(=O)CC(=O)NC1=S (centres undefined) :: > 100 µM (inactive)
CC(=N\N=C\c1ccccn1)/C(C)=N/N=C(C)/C(C)=N/N=C/c1ccccn1 :: > 100 µM (inactive)
c1ccc2c(c1)C1CCCCCC21N1CCOCC1 (centres undefined) :: 29.7 µM (inactive)
Brc1cccc(/C=C/CN2CCN(CCOC(c3ccccc3)c3ccccc3)CC2)c1 :: 16.7 µM (inactive)
CC(C)=CC(C(O)c1ccccc1)S(=O)(=O)c1nccn1C (centres undefined) :: > 100 µM (inactive)
Cc1nc2c(ccc3ncccc32)[nH]1 :: > 100 µM (inactive)
CCCCNC(=S)N/N=C/c1cccc(C)n1 :: 39.3 µM (inactive)
Cc1ccc2ccccc2c1CC1S(=O)(=O)OCCOS1(=O)=O :: 12.7 µM (inactive)
NC(CCC(=O)Nc1ccc(O)cc1)C(=O)O (centres undefined) :: > 100 µM (inactive)
Cc1cc(=O)n2nc(SCc3ccccc3)sc2n1 :: > 100 µM (inactive)
COc1ccc(/C=c2\sc3n(c2=O)C(N)=C(C#N)C(c2ccc(OC)cc2)C=3c2nc3ccccc3[nH]2)cc1 (centres undefined) :: > 100 µM (inactive)
C/C(=C\c1ccccc1)n1c(=O)cc(C)n1C :: > 100 µM (inactive)
CCCCCCCCSC(=O)NCCCC :: 34.6 µM (inactive)
CSCCCNC(=O)c1csc(-c2csc(CCN)n2)n1 :: > 100 µM (inactive)
CON(C)c1nc(N)c(C#N)c(C#N)c1C#N :: > 10 µM (inactive)
C=C1C(=O)O[C@H]2[C@@H](O)[C@H](C)CCC/C(C)=C/CC[C@@]3(C)O[C@@H]3C[C@@H]12 :: 16.7 µM (inactive)
COc1cc2c(cc1OC)C(CC1=C(c3ccccc3)CN3CCc4cc(OC)c(OC)cc4C3C1)NCC2 (centres undefined) :: 19.6 µM (inactive)
COc1ccc(/C=C(\C#N)c2nc3ccccc3c(=O)[nH]2)cc1 :: 12.9 µM (inactive)
CCCCOCCOC1=C(Cl)C(=O)c2c(O)ccc(O)c2C1=O :: 1.36 µM (inactive)
O=C1NC(NNc2ccccc2)=N/C1=C\c1ccco1 :: 43.5 µM (inactive)
Fc1ccccc1-c1cc(S)c2cc3c(cc2n1)OCO3 :: 15.2 µM (inactive)
COc1ccc(OC)c(-c2cc(O)c3cc4c(cc3n2)OCO4)c1 :: 18.5 µM (inactive)
NNC(=O)N/N=C1\CN(c2ccc(Cl)cc2Cl)C(=O)C(=O)C1c1nc2ccccc2o1 (centres undefined) :: > 100 µM (inactive)
CS(=O)(=O)OCCn1cnc2nc(NC(=O)c3ccccc3)[nH]c(=O)c21 :: > 100 µM (inactive)
C=C(C)C1(Sc2ccc(OC)cc2)CC1 :: 45.4 µM (inactive)
